assayMethodText: DPPH radical scavenging assay
Assay type: biochemical
measurementContext: read-out: DPPH (IC50); mean ± SEM, three determinations
assayEndpoint: IC50 (µM)
Field: numeric (µM). Do not append units.

Tell me the measured IC50 of CCCCCCCCNC(=O)Cc1ccc(O)c(OC)c1 , please.
185

Tell me the measured IC50 of COc1cc(CNC(=O)CCCCCCC(C)C)ccc1O [Compound 3b, Dihydrocapsaicin] , please.
50.9

Tell me the measured IC50 of CCCCCCNC(=O)Cc1ccc(O)c(O)c1 [Compound 3h, 2-(3,4-Dihydroxyphenyl)-N-hexylacetamide] , please.
4.49

Tell me the measured IC50 of CC(C)CCCCCCC(=O)NCc1ccc(O)c(O)c1 , please.
7.33

Tell me the measured IC50 of COc1cc(CNC(=O)CCCC/C=C/C(C)C)ccc1O [Compound 3a, capsaicin, reference compound] , please.
52.1
